Parameter: Binding to 1 nM KDR, %. Scope: all listed entries.
Target Entity: T1, human vascular endothelial growth factor receptor-2 Fc chimera (KDR-Fc) (human, UniProt P35968 20-764)
T1 construct: range 1-764; purchased from R&D Systems; also called hKDR; human VEGF-R2-Fc; not shown: human IgG1 Fc
T1 sequence (P35968 20-764 limits assumed, change not shown, form in doubt): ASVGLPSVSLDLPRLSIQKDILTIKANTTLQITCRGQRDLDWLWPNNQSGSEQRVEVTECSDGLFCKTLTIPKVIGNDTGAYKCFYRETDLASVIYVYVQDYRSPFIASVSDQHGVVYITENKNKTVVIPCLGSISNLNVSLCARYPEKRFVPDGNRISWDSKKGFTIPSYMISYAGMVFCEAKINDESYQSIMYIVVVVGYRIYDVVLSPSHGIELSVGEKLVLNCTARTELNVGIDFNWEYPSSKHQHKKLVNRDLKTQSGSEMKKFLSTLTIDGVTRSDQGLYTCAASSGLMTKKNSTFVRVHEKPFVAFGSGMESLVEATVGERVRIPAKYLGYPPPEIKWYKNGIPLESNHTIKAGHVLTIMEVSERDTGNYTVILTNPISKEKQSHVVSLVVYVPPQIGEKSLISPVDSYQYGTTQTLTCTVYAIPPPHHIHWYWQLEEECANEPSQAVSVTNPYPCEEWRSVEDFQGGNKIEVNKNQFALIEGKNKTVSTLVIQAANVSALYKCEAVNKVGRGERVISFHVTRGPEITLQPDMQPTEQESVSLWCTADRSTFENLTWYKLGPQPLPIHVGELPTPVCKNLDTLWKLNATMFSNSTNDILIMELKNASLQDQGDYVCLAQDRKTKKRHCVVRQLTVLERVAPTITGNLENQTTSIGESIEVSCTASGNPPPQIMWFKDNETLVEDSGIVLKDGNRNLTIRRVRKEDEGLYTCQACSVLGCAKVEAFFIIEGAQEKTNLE
Assay Text: radioactive equilibrium binding, 1 nM KDR-Fc
Endpoint Label: Binding to 1 nM KDR, % (%)

1. 2′F7-PR4 (designed binder, tag left out) VSDVPRDLEVVAATPTSLLISWRHPHFPTRYYRITYGETGGNSPVQEFTVPLQPPTATISGLKPGVDYTITGYAVTLGLRDRELFVPISINYRT	5
2. 3E6 PR3 (designed binder, tag left out) EVVAATPTSLLISWRHPHFPTRYYRITYGETGGNSPVQEFTVPLQPPTATISGLKPGVDYTITGYAVTVPQNGHELITMISINYRT	12
3. 1′DelE11 PR4 (designed binder, tag left out) EVVAATPTSLLISWRHPHFPTRYYRITYGETGGNSPVQEFTVPLQPPTATISGLKPGVDYTITGYAVTVAQNDRELITPISINYRT	9
4. 3F5 PR3 (designed binder, tag left out) EVVAATPTSLLISWRHPHFPTRYYRITYGETGGNSPVQEFTVPLQPPTATISGLKPGVDYTITGYAVTVAYNEHELYTPISINYRT	11
5. 2′H5-PR4 (designed binder, tag left out) VSDVPRDLEVVAATPTSLLISWRHPHFPTRYYRITYGETGGNSPVQEFTVPLQPPTATISGLKPGVDYTITGYAVTLGKDVRELLTPISINYRT	3
6. 1′DelC10 PR4 (designed binder, tag left out) EVVAATPTSLLISWRHPHFPTRYYRITYGETGGNSPVQEFTVPLQPPTATISGLKPGVDYTITGYAVTVAKNDHELITPISINYRT	8
7. 4A12 PR3 (designed binder, tag left out) EVVAATPTSLLISWRHPHFPTRYYRITYGETGGNSPVQEFTVPLQPPTATISGLKPGVDYTITGYAVTVAQNDHELLTPISINYRT	13
8. 3G1 PR3 (designed binder, tag left out) EVVAATPTSLLISWRHPHFPTRYYRITYGETGGNSPVQEFTVPLQPPTATISGLKPGVDYTITGYAVTMAQNVRELLTPISINYRT	13
9. 2′C7-PR4 (designed binder, tag left out) VSDVPRDLEVVAATPTSLLISWRHPHFPTRYYRITYGETGGNSPVQEFTVPLQPPTATISGLKPGVDYTITGYAVTWDQNGHVLLTPISINYRT	5
10. 1′DelG11 PR4 (designed binder, tag left out) EVVAATPTSLLISWRHPHFPTRYYRITYGETGGNSPVQEFTVPLQPPTATISGLKPGVDYTITGYAVTLAQNGHVLITPISINYRT	11
11. 4B6 PR3 (designed binder, tag left out) EVVAATPTSLLISWRHPHFPTRYYRITYGETGGNSPVQEFTVPLQPPTATISGLKPGVDYTITGYAVTVGQNDHELFTPISINYRT	14
12. 2′DelB10 PR4 (designed binder, tag left out) EVVAATPTSLLISWRHPHFPTRYYRITYGETGGNSPVQEFTVPLQPPTATISGLKPGVDYTITGYAVTVTHNDHELLTPISINYRT	11
13. 1′DelA9 PR4 (designed binder, tag left out) EVVAATPTSLLISWRHPHFPTRYYRITYGETGGNSPVQEFTVPLQPPTATISGLKPGVDYTITGYAVTLAQNDHELMTPISINYRT	13
14. 1′DelC5 PR4 (designed binder, tag left out) EVVAATPTSLLISWRHPHFPTRYYRITYGETGGNSPVQEFTVPLQPPTATISGLKPGVDYTITGYAVTLAQNDHEIMTPISINYRT	11
15. 4C11 PR3 (designed binder, tag left out) EVVAATPTSLLISWRHPHFPTRYYRITYGETGGNSPVQEFTVPLQPPTATISGLKPGVDYTITGYAVTMAQNDRELITPISINYRT	14
16. 1′DelH9 PR4 (designed binder, tag left out) EVVAATPTSLLISWRHPHFPTRYYRITYGETGGNSPVQEFTVPLQPPTATISGLKPGVDYTITGYAVTVGQNDHELITPISINYRT	10
17. 2′DelH2 PR4 (designed binder, tag left out) EVVAATPTSLLISWRHPHFPTRYYRITYGETGGNSPVQEFTVPLQPPTATISGLKPGVDYTITGYAVTVSQYGHELITPISINYRT	8
18. 1′DelC6 PR4 (designed binder, tag left out) EVVAATPTSLLISWRHPHFPTRYYRITYGETGGNSPVQEFTVPLQPPTATISGLKPGVDYTITGYAVTVAQNEHELLTPISINYRT	12
